# TARGET OF ASSAY: human α7 nAChR (Homo sapiens, UniProt P36544)
# Construct: expressed in transfected cells; host or cells: Xenopus laevis oocytes, injected with in vitro transcribed cRNA
# Sequence (P36544 23-502): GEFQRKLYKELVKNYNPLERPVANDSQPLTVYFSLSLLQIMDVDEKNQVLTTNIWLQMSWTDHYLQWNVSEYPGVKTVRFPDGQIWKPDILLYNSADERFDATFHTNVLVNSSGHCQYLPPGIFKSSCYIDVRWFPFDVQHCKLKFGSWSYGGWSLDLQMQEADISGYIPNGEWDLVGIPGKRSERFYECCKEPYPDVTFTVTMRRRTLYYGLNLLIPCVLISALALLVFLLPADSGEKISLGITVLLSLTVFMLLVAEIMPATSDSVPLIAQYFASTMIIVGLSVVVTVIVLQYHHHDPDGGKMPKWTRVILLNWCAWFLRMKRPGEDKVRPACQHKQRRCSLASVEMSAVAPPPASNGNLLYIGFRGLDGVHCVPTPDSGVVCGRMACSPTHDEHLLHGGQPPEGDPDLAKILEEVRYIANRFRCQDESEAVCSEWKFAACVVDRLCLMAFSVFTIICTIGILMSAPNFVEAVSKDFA
# MEASUREMENT PROTOCOL: Two-electrode voltage-clamp recording of wild-type human α7 nAChR expressed in Xenopus oocytes
# Type: cell-based
# CONDITION: read-out: IC50 for inhibition of agonist-evoked responses
RECORDED METRIC: pIC50
Quick note: pIC50 values are minus log10 of concentrations in mol/L.

// recorded pIC50 for `Cc1cc(C)[n+](CCc2ccc(S(N)(=O)=O)cc2)c(C)c1` : 4.33

----------
# TARGET OF ASSAY: human α7 nAChR (Homo sapiens, UniProt P36544)
# MEASUREMENT PROTOCOL: Two-electrode voltage-clamp recording of wild-type human α7 nAChR expressed in Xenopus oocytes
# CONDITION: read-out: EC50 for potentiation of agonist-evoked responses
RECORDED METRIC: EC50 (µM)
# number only, unit µM dropped from output

// recorded EC50 for NS(=O)(=O)c1cc(C(=O)O)c(NCc2ccco2)cc1Cl [furosemide, Furosemide] : 200

Data credit: paper PMC6078708
